# Tested on: panel of 9 human cancer cell lines
# experiment: Cytotoxic activity, whole panel of 9 human cancer cell lines (means, active/total)
# Type: cell-based
# experimental_conditions: mean over human cancer cell lines tested (9 line panel)
property_label: IC50 (µM)
The figure you give is taken to be in µM; do not add the unit.

# input Quick one: give measured IC50 for O=[As][O-].[Na+] [Sodium meta-arsenite, sodium meta-arsenite]
# output 56
